Target: Mre11 Y187F (in MRNBD);Rad50NBD (Pyrococcus furiosus;Pyrococcus furiosus, UniProt Q8U1N9;P58301 1-426;1-195+709-882, Y187F|internal_change)
Test: fluorescence polarization

| BINDER | Kd / nM |
| --- | --- |
| FAM 40-mer dsDNA (dsDNA) DNA 1: GTGTTCGGACTCTGCCTCAAGACGGTAGTCAACGTGCTTG DNA 2: CAAGCACGTTGACTACCGTCTTGAGGCAGAGTCCGAACAC | 1320 |
